Target: HDAC1 (Homo sapiens (Human))
Sequence (Q13547 whole entry): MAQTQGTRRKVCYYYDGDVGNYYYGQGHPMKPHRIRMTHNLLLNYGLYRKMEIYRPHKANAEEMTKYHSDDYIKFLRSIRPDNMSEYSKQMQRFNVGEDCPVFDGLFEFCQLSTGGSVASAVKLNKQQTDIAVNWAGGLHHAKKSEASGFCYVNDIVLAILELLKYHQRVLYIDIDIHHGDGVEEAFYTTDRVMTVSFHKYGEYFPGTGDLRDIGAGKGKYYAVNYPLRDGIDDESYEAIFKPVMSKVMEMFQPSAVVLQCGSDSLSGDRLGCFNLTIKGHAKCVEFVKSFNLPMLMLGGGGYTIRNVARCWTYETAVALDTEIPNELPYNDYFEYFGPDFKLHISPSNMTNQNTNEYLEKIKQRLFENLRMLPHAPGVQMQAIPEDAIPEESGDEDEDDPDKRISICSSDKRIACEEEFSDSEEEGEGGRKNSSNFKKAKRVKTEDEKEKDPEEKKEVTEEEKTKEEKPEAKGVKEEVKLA
Assay: In vitro enzyme inhibition assay - HDAC (HDAC-Glo I/II), HDAC1
Type: biochemical
Settings: read-out: HDAC IC50 (nM) HDAC 1
Counter-ions that a name gives are not always drawn.
I'd be grateful if you could share measured IC50 for these entries.
Answers are plain numbers, in nM.

Use these answered entries as a reference point.
[[record]]
compound = "COc1cc(N2CCC(N)CC2)nc(-c2ccc(C#N)c(F)c2)c1-c1ccc(/C=C/C(=O)NO)c(O)c1 [Example 28, formate]"
subject_of_test = "HDAC1 (Homo sapiens (Human))"
measure_name = "IC50"
observed = 608

[[record]]
compound = "COc1ccc(-c2cnc(N3CCC(NCc4cccc(/C=C/C(=O)NO)c4)CC3)c(C#N)c2-c2ccc(C#N)c(F)c2)cc1O"
subject_of_test = "HDAC1 (Homo sapiens (Human))"
measure_name = "IC50"
observed = 178

[[record]]
compound = "COc1ccc(-c2cnc(N3CCC(NCc4ccc(CCC(=O)NO)nc4)CC3)c(C#N)c2-c2ccc(C#N)c(F)c2)cc1O [Example 191, formate]"
subject_of_test = "HDAC1 (Homo sapiens (Human))"
measure_name = "IC50"
observed = 0.54

[[record]]
compound = "COc1ccc(-c2cnc(N3CCC(NCc4cnc(/C=C/C(=O)NO)nc4)CC3)c(C)c2-c2ccc(C#N)c(F)c2)cc1O [Example 202, formate]"
subject_of_test = "HDAC1 (Homo sapiens (Human))"
measure_name = "IC50"
observed = 0.88

[[record]]
compound = "N#Cc1ccc(-c2c(-c3ccc(Cl)c(O)c3)cnc(N3CCC(NCc4ccc(/C=C/C(=O)NO)cc4)CC3)c2C#N)cn1"
subject_of_test = "HDAC1 (Homo sapiens (Human))"
measure_name = "IC50"
observed = 1.29


Hi team, please reply with IC50 for each item in this list.
1. N#Cc1ccc(-c2c(-c3ccc(Cl)c(O)c3)cnc(N3CCC(NCc4ccc(/C=C/C(=O)NO)cc4)CC3)c2C#N)cc1F
2. N#Cc1ccc(-c2c(-c3ccc(Cl)c(O)c3)cnc(N3CCC(NCc4ccc(/C=C/C(=O)NO)cc4F)CC3)c2C#N)cn1 [Example 241, formate]
3. COc1ccc(-c2cnc(N3CCC(NCc4ccc(/C=C/C(=O)NO)cn4)CC3)c(C#N)c2-c2ccc(C#N)c(F)c2)cc1O
4. Cc1c(N2CCC(NCc3ccc(/C=C/C(=O)NO)cc3)CC2)ncc(-c2ccc(OCC(C)(C)O)c(O)c2)c1-c1ccc(C#N)c(F)c1 [Example 207, hydrochloride]
5. N#Cc1ccc(-c2c(-c3ccc(O)c(O)c3)cnc(N3CCC(NCc4ccc(/C=C/C(=O)NO)cc4)CC3)c2C#N)cc1F [Example 137, hydrochloride]
6. COc1ccc(-c2cnc(N3CCC(NCc4ccc(/C=C/C(=O)NO)cc4)CC3)c(C#N)c2-c2ccc(C#N)cc2)cc1O

1. 13.6
2. 1.86
3. 5.3
4. 2.51
5. 0.52
6. 0.44

Hi team, please reply with IC50 for each item in this list.
1. N#Cc1ccc(-c2c(-c3ccc(/C=C/C(=O)NO)c(O)c3)cnc(N3CCC(N)CC3)c2C#N)cc1F [Example 62, hydrochloride]
2. COc1ccc(-c2cnc(N3CCC(NCCc4ccc(/C=C/C(=O)NO)cc4)CC3)c(C#N)c2-c2ccc(C#N)c(F)c2)cc1O [Example 45, hydrochloride]

[17.3, 70.6]

----------
Molecular target: HDAC8 (Homo sapiens (Human))
Sequence (Q9BY41 whole entry): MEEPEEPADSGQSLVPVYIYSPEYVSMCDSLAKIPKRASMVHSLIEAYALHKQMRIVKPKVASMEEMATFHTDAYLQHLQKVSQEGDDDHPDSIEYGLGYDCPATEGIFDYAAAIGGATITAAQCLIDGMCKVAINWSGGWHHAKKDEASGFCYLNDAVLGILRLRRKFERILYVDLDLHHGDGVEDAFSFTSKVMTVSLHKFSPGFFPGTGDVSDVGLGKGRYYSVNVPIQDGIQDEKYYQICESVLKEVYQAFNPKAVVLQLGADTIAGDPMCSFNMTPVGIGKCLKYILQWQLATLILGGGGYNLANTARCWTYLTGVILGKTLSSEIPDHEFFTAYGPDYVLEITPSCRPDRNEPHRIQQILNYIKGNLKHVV
Test: In vitro enzyme inhibition assay - HDAC (HDAC-Glo I/II), HDAC8
Type: biochemical
Conditions: read-out: HDAC IC50 (nM) HDAC 8
Source text: 2. In Vitro Enzyme Inhibition Assay—HDAC The effect of the compound on the enzymatic activity of pan-HDAC and two isoforms (HDAC1 and HDAC8) was examined using the HDAC-Glo I/II Assay and Screening System assay to assess the level of inhibition of HDAC protease activity and selectivity in each isoform. […] The 384-well plate was then read on a multifunctional microplate reader, with the Luminescence channel selected to record Luminescence values (RLU). […]
Where a name gives a salt, the structure may show the parent alone.
I'd be grateful if you could share measured log10(IC50) for these entries.
A value of 2 here means IC50 of 100 in nM, since values are log10.

[[record]]
molecule = "COc1ccc(-c2cnc(N3CCC(NCc4ccc(/C=C/C(=O)NO)cc4C)CC3)c(C#N)c2-c2ccc(C#N)c(F)c2)cc1O [Example 211, formate]"
subject_of_test = "HDAC8 (Homo sapiens (Human))"
observed = 1.92


Hi team, please reply with log10(IC50) for each item in this list.
1. COc1ccc(-c2cnc(N3CCC(NCc4ccc(/C=C/C(=O)NO)cc4)CC3)c(C#N)c2-c2ccc(C#N)nc2)cc1O
2. N#Cc1ccc(-c2c(-c3ccc(CO)c(O)c3)cnc(N3CCC(NCc4ccc(/C=C/C(=O)NO)cc4)CC3)c2C#N)cc1F [Example 131, formate]
3. COc1ccc(-c2c(C)nc(N3CCC(NCc4ccc(/C=C/C(=O)NO)cc4)CC3)c(C#N)c2-c2ccc(C#N)c(F)c2)cc1O [Example 50, formate]

1. 1.24
2. 1.67
3. 2.23

Hi team, please reply with log10(IC50) for each item in this list.
1. COc1ccc(-c2cnc(N3CCC(NCC4CC=C(/C=C/C(=O)NO)CC4)CC3)c(C#N)c2-c2ccc(C#N)c(F)c2)cc1O (stereo not drawn) [Example 155, formate]
2. N#Cc1ccc(-c2cc(C(=O)N3C4CCC3CC(N)C4)sc2-c2ccc(OCCCCCCC(=O)NO)c(O)c2)cc1F (stereo not drawn) [Example 32, hydrochloride]
3. CNc1ccc(-c2cnc(N3CCC(NCc4ccc(CCC(=O)NO)cn4)CC3)c(C#N)c2-c2ccc(C#N)c(F)c2)cc1O [Example 194, hydrochloride]

1.37
2.45
2.73

Hi team, please reply with log10(IC50) for each item in this list.
1. COc1c(O)cc(-c2cnc(N3CCC(NCc4ccc(/C=C/C(=O)NO)cc4)CC3)c(C#N)c2-c2ccc(C#N)c(F)c2)cc1F [Example 168, formate]
2. COc1ccc(-c2cnc(N3CCC(NCc4ccc(CCC(=O)NO)c(F)c4)CC3)c(C#N)c2-c2ccc(C#N)c(F)c2)cc1O
3. COc1ccc(-c2cnc(N3CCC(NCc4ccc(OC(C)C(=O)NO)cc4)CC3)c(C#N)c2-c2ccc(C#N)c(F)c2)cc1O (stereo not drawn) [Example 183, formate]

1. 2.40
2. 2.64
3. 3.57

Hi team, please reply with log10(IC50) for each item in this list.
1. COc1ccc(-c2cnc(N3CCC(NCc4ccc(/C=C/C(=O)NO)cc4)CC3)cc2-c2ccc(C#N)c(F)c2)cc1O [Example 80, formate]
2. Cc1ccc(-c2c(-c3ccc(C#N)c(F)c3)nc(N3CCC(NCCCCCCC(=O)NO)CC3)n3ccnc23)cc1O [Example 34, Hydrochloride]

1: 2.22; 2: 2.55

----------
Target: pan-HDAC
Assay: In vitro enzyme inhibition assay - HDAC (HDAC-Glo I/II), pan-HDAC
Assay type: biochemical
Structures can show the parent of a compound that is named as a salt.
Simple rule here: IC50 less than 10 nM is fulfilled, otherwise not fulfilled.

Check out these entries, answers already filled in.
[[record]]
compound = "CC(C)(O)COc1ccc(-c2cnc(N3CCC(NC(C)(C)c4ccc(/C=C/C(=O)NO)cc4)CC3)c(C#N)c2-c2ccc(C#N)c(F)c2)cc1O [Example 223, hydrochloride]"
cat = "fulfilled"

[[record]]
compound = "COc1ccc(-c2cnc(N3CCC(NCc4ccc(/C=C/C(=O)NO)cc4)CC3)c(C#N)c2-c2cnc(C#N)c(C)c2)cc1O [Example 247, formate]"
cat = "fulfilled"

[[record]]
compound = "COc1ccc(-c2cnc(N3CCC(NCc4ncc(/C=C/C(=O)NO)cn4)CC3)c(C#N)c2-c2ccc(C#N)c(F)c2)cc1O [Example 135, formate]"
cat = "not fulfilled"

[[record]]
compound = "N#Cc1ccc(-c2cc(OCCCCCCC(=O)NO)cc(N3CCC(N)CC3)n2)cc1F [Example 31, hydrochloride]"
cat = "fulfilled"

[[record]]
compound = "COc1ccc(-c2cnc(N3CCC(NCc4ccc5cc(C(=O)NO)sc5c4)CC3)c(C#N)c2-c2ccc(C#N)c(F)c2)cc1O"
cat = "not fulfilled"


Lab note: confirm whether the reported IC50 for this compound is below 10 nM, equality not counting. compound: `COc1ccc(-c2cnc(N3CCC(NCc4ccc(OCC(=O)NO)c(OC)c4)CC3)c(C#N)c2-c2ccc(C#N)c(F)c2)cc1O`
fulfilled

Lab note: confirm whether the reported IC50 for this compound is below 10 nM, equality not counting. compound: COc1cc(N2CCC(N)CC2)nc(-c2ccc(C#N)c(F)c2)c1-c1ccc(OCCCCCCC(=O)NO)c(O)c1 [Example 27, hydrochloride]
not fulfilled

Lab note: confirm whether the reported IC50 for this compound is below 10 nM, equality not counting. compound: `Cc1ccc(-c2c(OCCCCCCC(=O)NO)cc(N3CCC(N)CC3)nc2-c2ccc(C#N)c(F)c2)cc1`
not fulfilled

Lab note: confirm whether the reported IC50 for this compound is below 10 nM, equality not counting. compound: COc1ccc(-c2cnc(N3CCC(NCc4ccc(/C=C/C(=O)NO)cc4F)CC3)c(OC)c2-c2ccc(C#N)nc2)cc1O [Example 264, formate]
fulfilled

Lab note: confirm whether the reported IC50 for this compound is below 10 nM, equality not counting. compound: CC(C)(O)COc1ccc(-c2cnc(N3CCC(NCc4cnc(/C=C/C(=O)NO)nc4)CC3)c(C#N)c2-c2ccc(C#N)c(F)c2)cc1O [Example 187, formate]
fulfilled

Lab note: confirm whether the reported IC50 for this compound is below 10 nM, equality not counting. compound: COc1cc(O)c(-c2cnc(N3CCC(NCc4ccc(/C=C/C(=O)NO)cc4)CC3)c(C#N)c2-c2ccc(C#N)c(F)c2)cc1O [Example 158, trifluoroacetate]
fulfilled

Lab note: confirm whether the reported IC50 for this compound is below 10 nM, equality not counting. compound: COc1ccc(-c2cnc(N3CCC(NCc4ccc(CCC(=O)NO)nc4)CC3)c(C#N)c2-c2ccc(C#N)c(F)c2)cc1O [Example 191, formate]
fulfilled

Lab note: confirm whether the reported IC50 for this compound is below 10 nM, equality not counting. compound: COc1ccc(-c2cnc(N3CCC(NCc4ccc(/C=C(\F)C(=O)NO)cc4)CC3)c(C#N)c2-c2ccc(C#N)c(F)c2)cc1O [Example 171, formate]
fulfilled

Lab note: confirm whether the reported IC50 for this compound is below 10 nM, equality not counting. compound: COc1ccc(-c2cnc(N3CCC(NCc4ccc(/C=C/C(=O)NO)c(F)c4)CC3)c(C#N)c2-c2ccc(C#N)c(F)c2)cc1O [Example 200, formate]
fulfilled

Lab note: confirm whether the reported IC50 for this compound is below 10 nM, equality not counting. compound: `N#Cc1ccc(-c2c(-c3ccc(N4CCOCC4)c(O)c3)cnc(N3CCC(NCc4ccc(/C=C/C(=O)NO)cc4)CC3)c2C#N)cc1F`
fulfilled

Lab note: confirm whether the reported IC50 for this compound is below 10 nM, equality not counting. compound: COc1ccc(-c2cnc(N3CCC(NCc4ccc(/C=C/C(=O)NO)o4)CC3)c(C#N)c2-c2ccc(C#N)c(F)c2)cc1O [Example 178, formate]
not fulfilled

Lab note: confirm whether the reported IC50 for this compound is below 10 nM, equality not counting. compound: COc1ccc(-c2cnc(N3CCC(NCc4cnc(/C=C/C(=O)NO)cc4Cl)CC3)c(C#N)c2-c2ccc(C#N)c(F)c2)cc1O [Example 227, formate]
not fulfilled

Lab note: confirm whether the reported IC50 for this compound is below 10 nM, equality not counting. compound: Cc1c(N2CCC(NCc3ccc(/C=C/C(=O)NO)cc3)CC2)ncc(-c2ccc(OCC(C)(C)O)c(O)c2)c1-c1ccc(C#N)c(F)c1 [Example 207, hydrochloride]
not fulfilled

Lab note: confirm whether the reported IC50 for this compound is below 10 nM, equality not counting. compound: `COc1ccc(-c2cnc(N3CCC(NCCCc4ccc(C(=O)NO)cc4)CC3)c(C#N)c2-c2ccc(C#N)c(F)c2)cc1O`
not fulfilled

Lab note: confirm whether the reported IC50 for this compound is below 10 nM, equality not counting. compound: COc1ccc(-c2cnc(N3CCC(NCc4ccc(/C=C/C(=O)NO)cc4)CC3)c(F)c2-c2ccc(C#N)nc2)cc1O [Example 268, formate]
fulfilled

Lab note: confirm whether the reported IC50 for this compound is below 10 nM, equality not counting. compound: CC1(NCc2ccc(/C=C/C(=O)NO)cc2)CCN(c2ncc(-c3ccc(OC(F)(F)F)c(O)c3)c(-c3ccc(C#N)c(F)c3)c2C#N)CC1 [Example 214, formate]
not fulfilled

Lab note: confirm whether the reported IC50 for this compound is below 10 nM, equality not counting. compound: COc1ccc(-c2cnc(N3CCC(NCC4CC=C(/C=C/C(=O)NO)CC4)CC3)c(C#N)c2-c2ccc(C#N)c(F)c2)cc1O (stereo not drawn) [Example 155, formate]
not fulfilled

Lab note: confirm whether the reported IC50 for this compound is below 10 nM, equality not counting. compound: COc1cc(-c2cnc(N3CC4CC3CC4NCc3ccc(/C=C/C(=O)NO)cc3)c(C#N)c2-c2ccc(C#N)c(F)c2)ccc1O (stereo not drawn)
not fulfilled

Lab note: confirm whether the reported IC50 for this compound is below 10 nM, equality not counting. compound: N#Cc1ccc(-c2c(-c3ccc(N4CCOCC4)c(O)c3)cnc(N3CCC(NCc4ccc(/C=C/C(=O)NO)cc4)CC3)c2C#N)cn1 [Example 244, formate]
fulfilled
